This collection of values is drawn from PubChem BioAssay AID1963842.

A collection of molecules and their measured viability, T/C
Tested on: 677734-321-R-J1-PDC complex spheroid viability;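 further: spheroids exposed to compounds for one week; 100% = vehicle DMSO treated spheroids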
Assay: Anticancer human tumor 677734-321-R-J1-PDC patient-derived soft tissue sarcoma cell line growth inhibition [POLQ]
Conditions: second compound 10 µM; first compound 0.0316 µM; active compounds read low
Numbers only here, please. The scale is %.

- molecule: "C=CC(=O)N1CCN(c2nc(=O)n(-c3c(C)ccnc3C(C)C)c3nc(-c4c(O)cccc4F)c(F)cc23)C(C)C1 (stereo unspecified) + Nc1ccc(C#CCN(C(=O)Cc2ncc(C(F)(F)F)cc2C(F)(F)F)c2ccc(F)cc2)nn1"
  study target: "677734-321-R-J1-PDC complex spheroid viability"
  parameter: "viability, T/C"
  reading unit: "%"
  test value: 136
- molecule: "COc1cccc(OCCCN)c1-c1cc(Nc2cnc(C#N)cn2)n[nH]1 + COC1C(OC(N)=O)C(O)C(Oc2ccc3c(O)c(NC(=O)c4ccc(O)c(CC=C(C)C)c4)c(=O)oc3c2C)OC1(C)C"
  study target: "677734-321-R-J1-PDC complex spheroid viability"
  parameter: "viability, T/C"
  reading unit: "%"
  test value: 12.3
- molecule: "CCc1c2c(nc3ccc(O)cc13)-c1cc3c(c(=O)n1C2)COC(=O)[C@]3(O)CC + Cc1cccc(N(C)C(=O)C2C(O)CCN2c2nc(C)cc(C(F)(F)F)c2C#N)c1"
  study target: "677734-321-R-J1-PDC complex spheroid viability"
  parameter: "viability, T/C"
  reading unit: "%"
  test value: 5.22

Query C#Cc1c(F)ccc2cc(O)cc(-c3ncc4c(N5CC6CCC(C5)N6)nc(OCC56CCCN5CC(F)C6)nc4c3F)c12 (stereo unspecified) + Cc1cccc(N(C)C(=O)C2C(O)CCN2c2nc(C)cc(C(F)(F)F)c2C#N)c1 yields viability, T/C of 99.9

Query COc1cccc2c1C(=O)c1c(O)c3c(c(O)c1C2=O)CC(O)(C(=O)CO)CC3OC1CC(N)C(O)C(C)O1 (stereo unspecified) + Nc1ccc(C#CCN(C(=O)Cc2ncc(C(F)(F)F)cc2C(F)(F)F)c2ccc(F)cc2)nn1 yields viability, T/C of 57.3

Query Cn1ncnc1[C@H]1c2n[nH]c(=O)c3cc(F)cc(c23)N[C@@H]1c1ccc(F)cc1 + Cc1cccc(N(C)C(=O)C2C(O)CCN2c2nc(C)cc(C(F)(F)F)c2C#N)c1 yields viability, T/C of 91.3

Query O=c1[nH]cc(F)c(=O)[nH]1 + Nc1ccc(C#CCN(C(=O)Cc2ncc(C(F)(F)F)cc2C(F)(F)F)c2ccc(F)cc2)nn1 yields viability, T/C of 101

Query CNCc1ccc(-c2[nH]c3cc(F)cc4c3c2CCNC4=O)cc1 + Nc1ccc(C#CCN(C(=O)Cc2ncc(C(F)(F)F)cc2C(F)(F)F)c2ccc(F)cc2)nn1 yields viability, T/C of 97.4

Query COc1cccc(OCCCN)c1-c1cc(Nc2cnc(C#N)cn2)n[nH]1 + Cc1cccc(N(C)C(=O)C2C(O)CCN2c2nc(C)cc(C(F)(F)F)c2C#N)c1 yields viability, T/C of 7.44

Query CCc1c2c(nc3ccc(O)cc13)-c1cc3c(c(=O)n1C2)COC(=O)[C@]3(O)CC + COC1C(OC(N)=O)C(O)C(Oc2ccc3c(O)c(NC(=O)c4ccc(O)c(CC=C(C)C)c4)c(=O)oc3c2C)OC1(C)C yields viability, T/C of 4.86

Query COc1cccc2c1C(=O)c1c(O)c3c(c(O)c1C2=O)CC(O)(C(=O)CO)CC3OC1CC(N)C(O)C(C)O1 (stereo unspecified) + Cc1cccc(N(C)C(=O)C2C(O)CCN2c2nc(C)cc(C(F)(F)F)c2C#N)c1 yields viability, T/C of 94
